Target: human CD40 on cells (human, UniProt P25942 21-277)
Sequence (P25942 21-277): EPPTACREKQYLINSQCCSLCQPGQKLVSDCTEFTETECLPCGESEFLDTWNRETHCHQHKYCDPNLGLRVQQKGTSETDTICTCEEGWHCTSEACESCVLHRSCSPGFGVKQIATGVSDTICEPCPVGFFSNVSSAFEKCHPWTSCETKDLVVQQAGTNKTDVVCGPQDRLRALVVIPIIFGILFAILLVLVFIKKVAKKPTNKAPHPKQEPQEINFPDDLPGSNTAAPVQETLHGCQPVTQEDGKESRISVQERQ
Test: cell-based or functional assay
measured_endpoint: Fold (EC50 in the absence of crosslinking/EC50 in the presence of crosslinking) (fold)
Number only, in fold; omit the unit.

These recorded examples may help you get a feel for the data.
>>> reported("PR006496 (antibody, human IgG1, kappa, V domains shown, PR003379 variant L:N92F; human IgG1 L234A, L235A, G237A) VH: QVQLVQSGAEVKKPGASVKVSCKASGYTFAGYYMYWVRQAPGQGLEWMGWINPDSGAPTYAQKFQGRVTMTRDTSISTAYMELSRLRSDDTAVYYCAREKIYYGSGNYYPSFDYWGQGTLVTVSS VL: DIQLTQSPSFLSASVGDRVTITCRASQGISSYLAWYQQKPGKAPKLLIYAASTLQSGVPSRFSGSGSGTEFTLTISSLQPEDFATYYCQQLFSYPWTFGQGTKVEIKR")
1.98
>>> reported("PR006504 (antibody, human IgG1, kappa, V domains shown, PR003379 variant L:N92V; human IgG1 L234A, L235A, G237A) VH: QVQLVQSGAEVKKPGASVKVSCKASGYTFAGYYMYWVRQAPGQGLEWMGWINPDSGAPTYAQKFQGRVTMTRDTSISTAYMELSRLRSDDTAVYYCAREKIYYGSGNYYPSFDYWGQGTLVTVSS VL: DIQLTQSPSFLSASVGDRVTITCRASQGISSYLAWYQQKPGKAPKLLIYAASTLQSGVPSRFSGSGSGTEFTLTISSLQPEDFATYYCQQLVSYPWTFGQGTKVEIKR")
4.5
>>> reported("PR006495 (antibody, human IgG1, kappa, V domains shown, PR003379 variant L:N92A; human IgG1 L234A, L235A, G237A) VH: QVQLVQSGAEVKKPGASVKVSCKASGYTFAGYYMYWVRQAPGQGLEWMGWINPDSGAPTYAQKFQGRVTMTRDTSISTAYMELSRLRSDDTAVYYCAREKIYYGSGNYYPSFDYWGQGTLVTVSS VL: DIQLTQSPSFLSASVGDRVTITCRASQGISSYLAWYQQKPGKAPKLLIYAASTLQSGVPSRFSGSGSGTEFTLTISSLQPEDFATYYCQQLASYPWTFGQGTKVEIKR")
8.28
>>> reported("PR006511 (antibody, human IgG1, kappa, V domains shown, PR003379 variant L:S93N; human IgG1 L234A, L235A, G237A) VH: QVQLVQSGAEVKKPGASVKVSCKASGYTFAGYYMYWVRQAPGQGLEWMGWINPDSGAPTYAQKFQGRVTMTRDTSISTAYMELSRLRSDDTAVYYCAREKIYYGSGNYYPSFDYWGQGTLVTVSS VL: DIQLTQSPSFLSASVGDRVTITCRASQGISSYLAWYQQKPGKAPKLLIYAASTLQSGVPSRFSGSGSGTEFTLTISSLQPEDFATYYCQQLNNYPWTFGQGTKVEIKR")
5.1

Query: Fold (EC50 in the absence of crosslinking/EC50 in the presence of crosslinking); subject: PR006510 (antibody, human IgG1, kappa, V domains shown, PR003379 variant L:S93R; human IgG1 L234A, L235A, G237A) VH: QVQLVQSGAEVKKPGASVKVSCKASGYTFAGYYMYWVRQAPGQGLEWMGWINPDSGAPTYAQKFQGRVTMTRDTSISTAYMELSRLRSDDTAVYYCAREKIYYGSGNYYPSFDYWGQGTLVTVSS VL: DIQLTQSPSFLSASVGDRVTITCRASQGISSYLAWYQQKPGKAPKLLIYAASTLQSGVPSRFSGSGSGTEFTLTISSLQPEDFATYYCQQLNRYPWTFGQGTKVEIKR
2.96

Note, next up: PR006500 (antibody, human IgG1, kappa, V domains shown, PR003379 variant L:N92M; human IgG1 L234A, L235A, G237A) VH: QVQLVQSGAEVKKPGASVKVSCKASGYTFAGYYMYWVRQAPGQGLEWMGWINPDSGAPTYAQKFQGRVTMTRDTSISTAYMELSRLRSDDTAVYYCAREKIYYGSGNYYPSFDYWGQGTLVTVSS VL: DIQLTQSPSFLSASVGDRVTITCRASQGISSYLAWYQQKPGKAPKLLIYAASTLQSGVPSRFSGSGSGTEFTLTISSLQPEDFATYYCQQLMSYPWTFGQGTKVEIKR
1.78

Note, next up: PR006498 (antibody, human IgG1, kappa, V domains shown, PR003379 variant L:N92I; human IgG1 L234A, L235A, G237A) VH: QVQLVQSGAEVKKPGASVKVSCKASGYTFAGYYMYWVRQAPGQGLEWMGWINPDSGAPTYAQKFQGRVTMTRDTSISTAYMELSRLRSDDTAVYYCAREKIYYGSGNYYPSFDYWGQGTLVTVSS VL: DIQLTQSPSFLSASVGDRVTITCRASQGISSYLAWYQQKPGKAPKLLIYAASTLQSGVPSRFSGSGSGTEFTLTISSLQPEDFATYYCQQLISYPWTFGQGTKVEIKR
2.36

Note, next up: PR006497 (antibody, human IgG1, kappa, V domains shown, PR003379 variant L:N92Y; human IgG1 L234A, L235A, G237A) VH: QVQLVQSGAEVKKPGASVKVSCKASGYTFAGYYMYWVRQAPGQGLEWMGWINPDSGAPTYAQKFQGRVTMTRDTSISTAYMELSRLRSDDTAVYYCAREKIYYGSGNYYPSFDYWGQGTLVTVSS VL: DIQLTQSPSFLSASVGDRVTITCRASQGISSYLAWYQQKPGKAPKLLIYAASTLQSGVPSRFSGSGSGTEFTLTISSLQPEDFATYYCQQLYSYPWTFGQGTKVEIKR
3.03

Note, next up: PR006499 (antibody, human IgG1, kappa, V domains shown, PR003379 variant L:N92W; human IgG1 L234A, L235A, G237A) VH: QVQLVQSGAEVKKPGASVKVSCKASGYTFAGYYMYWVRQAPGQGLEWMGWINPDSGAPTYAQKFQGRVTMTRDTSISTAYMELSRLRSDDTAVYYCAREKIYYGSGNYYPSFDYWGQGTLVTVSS VL: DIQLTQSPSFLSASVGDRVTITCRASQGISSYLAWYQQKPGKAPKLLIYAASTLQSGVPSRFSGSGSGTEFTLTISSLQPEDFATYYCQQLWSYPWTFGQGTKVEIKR
2.58

Note, next up: PR006515 (antibody, human IgG1, kappa, V domains shown, PR003379 variant L:S93M; human IgG1 L234A, L235A, G237A) VH: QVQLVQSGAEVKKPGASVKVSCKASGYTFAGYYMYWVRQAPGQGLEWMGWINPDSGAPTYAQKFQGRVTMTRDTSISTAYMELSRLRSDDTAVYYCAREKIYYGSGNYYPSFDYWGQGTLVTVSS VL: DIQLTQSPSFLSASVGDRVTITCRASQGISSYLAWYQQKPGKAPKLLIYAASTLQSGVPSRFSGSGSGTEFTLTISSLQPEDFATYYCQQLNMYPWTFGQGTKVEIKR
4.01

Note, next up: PR006502 (antibody, human IgG1, kappa, V domains shown, PR003379 variant L:N92D; human IgG1 L234A, L235A, G237A) VH: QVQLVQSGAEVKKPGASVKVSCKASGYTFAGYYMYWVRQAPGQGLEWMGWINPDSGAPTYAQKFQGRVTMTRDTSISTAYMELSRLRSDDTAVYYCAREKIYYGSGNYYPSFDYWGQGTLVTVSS VL: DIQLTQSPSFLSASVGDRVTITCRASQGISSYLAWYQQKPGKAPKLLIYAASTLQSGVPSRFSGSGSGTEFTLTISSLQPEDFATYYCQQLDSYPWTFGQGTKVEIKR
1.88
